Recorded SERT/DAT Selectivity by entry
Target: Serotonin transporter (SERT) (Macaca mulatta)
Construct: in monkey striatum homogenates; from tissue; host or cells: monkey striatum homogenate
Experiment: (3H)citalopram competition binding in monkey striatum homogenates
Conditions: monkey striatum; fold selectivity for serotonin over dopamine transporter
Lab note: jot the number down without any unit.

Study these solved cases before continuing.
C=C(C)c1ccc(C2CC3CCC(O3)C2C(=O)OC)cc1 (racemic) [Compound O-1739]	52
CC#Cc1ccc([C@H]2C[C@@H]3CC[C@@H](O3)[C@H]2C(=O)OC)cc1 (relative stereo)	8
COC(=O)[C@H]1[C@@H](c2ccc(Cl)c(Cl)c2)C[C@@H]2CC[C@H]1O2 (relative stereo)	0.8

IN: Field request: SERT/DAT Selectivity | item: CC#Cc1ccc([C@@H]2C[C@@H]3CC[C@@H](O3)[C@H]2C(=O)OC)cc1 (relative stereo)
OUT: 3

IN: Fill in: SERT/DAT Selectivity of COC(=O)[C@@H]1[C@H]2CC[C@H](C2)C[C@H]1c1ccc2ccccc2c1 (relative stereo) is ___
OUT: 0.3

IN: Look up SERT/DAT Selectivity for this molecule: COC(=O)[C@@H]1[C@H]2CC[C@H](C2)C[C@@H]1c1ccc2ccccc2c1 (relative stereo)
OUT: 0.4

IN: Report SERT/DAT Selectivity for COC(=O)[C@H]1[C@@H](c2ccc3ccccc3c2)C[C@@H]2CC[C@H]1N2C (relative stereo) please.
OUT: 0.2

IN: Item C=C(C)c1ccc([C@@H]2C[C@@H]3CC[C@@H](O3)[C@H]2C(=O)OC)cc1 (relative stereo) has what recorded SERT/DAT Selectivity?
OUT: 6

IN: What does the data say about its SERT/DAT Selectivity? Entry: C=C(C)c1ccc(C2CC3CCC(O3)C2C(=O)OC)cc1 (single isomer, unassigned) [Compound O-1809]
OUT: 99

IN: Using the record for COC(=O)[C@@H]1[C@H]2CC[C@H](C2)C[C@@H]1c1ccc(Cl)c(Cl)c1 (racemic) , report its SERT/DAT Selectivity.
OUT: 0.4

----------
Target: Serotonin transporter (SERT) (Macaca mulatta, UniProt Q9MYX0)
Construct: in monkey striatum homogenates; from tissue; host or cells: monkey striatum homogenate
Sequence (Q9MYX0 whole entry): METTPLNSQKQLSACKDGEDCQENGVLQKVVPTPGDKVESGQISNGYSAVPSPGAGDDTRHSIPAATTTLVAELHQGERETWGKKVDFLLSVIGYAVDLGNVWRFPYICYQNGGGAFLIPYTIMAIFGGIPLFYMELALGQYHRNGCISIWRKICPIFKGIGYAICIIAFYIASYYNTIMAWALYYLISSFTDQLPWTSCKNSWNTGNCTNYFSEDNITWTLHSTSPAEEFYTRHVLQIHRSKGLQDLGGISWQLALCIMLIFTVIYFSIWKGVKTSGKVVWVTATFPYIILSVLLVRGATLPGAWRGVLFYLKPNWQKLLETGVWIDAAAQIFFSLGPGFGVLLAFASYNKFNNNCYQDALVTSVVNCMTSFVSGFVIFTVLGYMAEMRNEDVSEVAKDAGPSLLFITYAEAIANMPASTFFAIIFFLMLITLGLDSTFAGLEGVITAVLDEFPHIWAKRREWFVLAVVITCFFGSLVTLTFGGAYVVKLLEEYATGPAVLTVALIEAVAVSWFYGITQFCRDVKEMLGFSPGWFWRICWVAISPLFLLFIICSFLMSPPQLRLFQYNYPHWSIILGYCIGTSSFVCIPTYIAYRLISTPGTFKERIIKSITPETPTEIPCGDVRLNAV
Experiment: (3H)citalopram competition binding in monkey striatum homogenates
Settings: monkey striatum
readout: selectivity for the serotonin over the dopamine transporter (in words)

COC(=O)[C@@H]1[C@H]2CC[C@H](C2)C[C@@H]1c1ccc(Cl)c(Cl)c1 (racemic)	relatively non-selective
COC(=O)[C@H]1[C@@H](c2ccc(Cl)c(Cl)c2)C[C@@H]2CC[C@H]1O2 (relative stereo)	relatively non-selective
COC(=O)[C@@H]1[C@H]2CC[C@H](C2)C[C@H]1c1ccc2ccccc2c1 (relative stereo)	relatively non-selective
COC(=O)[C@@H]1[C@H]2CC[C@H](C2)C[C@@H]1c1ccc2ccccc2c1 (relative stereo)	relatively non-selective
